Origin of values: PubChem BioAssay AID2060910

Tested on: 242566-281-R-J2-PDC complex spheroid viability;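 note: spheroids exposed to compound for 7 days before readout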
procedure-details: Anticancer human tumor 242566-281-R-J2-PDC patient-derived pancreatic carcinoma cell line growth inhibition [RAS]
experimental-conditions: curve of first compound; second compound 0.0949 µM
pIC50: −log10 of the molar value.

molecule | assay-system | pIC50
Cc1nc(N2CCC3(CC2)COC(C)C3N)c(CO)nc1Sc1ccnc(N)c1Cl (centres undefined) + CCn1c(-c2cccnc2C(C)OC)c2c3cc(ccc31)N1CCOC(CC(NC(=O)C(C(C)C)N(C)C(=O)C3(F)CCN(C(=O)C#CC(C)(C)N(C)C)CC3)C(=O)N3CCCC(N3)C(=O)OCC(C)(C)C2)C1 | 242566-281-R-J2-PDC complex spheroid viability | < 5.00
CCc1c2c(nc3ccc(O)cc13)-c1cc3c(c(=O)n1C2)COC(=O)[C@]3(O)CC + CCn1c(-c2cccnc2C(C)OC)c2c3cc(ccc31)N1CCOC(CC(NC(=O)C(C(C)C)N(C)C(=O)C3(F)CCN(C(=O)C#CC(C)(C)N(C)C)CC3)C(=O)N3CCCC(N3)C(=O)OCC(C)(C)C2)C1 | 242566-281-R-J2-PDC complex spheroid viability | 7.73
CC(C)NCC(C(=O)N1CCN(c2ncnc3c2C(C)CC3O)CC1)c1ccc(Cl)cc1 (centres undefined) + CCn1c(-c2cc(N3CCN(C)CC3)cnc2C(C)OC)c2c3cc(ccc31)-c1csc(n1)CC(NC(=O)C1CC1C)C(=O)N1CCCC(N1)C(=O)OCC(C)(C)C2 | 242566-281-R-J2-PDC complex spheroid viability | > 7.50
CC(C)NCC(C(=O)N1CCN(c2ncnc3c2C(C)CC3O)CC1)c1ccc(Cl)cc1 (centres undefined) + CCn1c(-c2cccnc2C(C)OC)c2c3cc(ccc31)N1CCOC(CC(NC(=O)C(C(C)C)N(C)C(=O)C3(F)CCN(C(=O)C#CC(C)(C)N(C)C)CC3)C(=O)N3CCCC(N3)C(=O)OCC(C)(C)C2)C1 | 242566-281-R-J2-PDC complex spheroid viability | < 5.00
